Answer each item with its documented RNAcompete 7-mer binding Z-score.
- System: RBM10 RRM1-ZnF-RRM2 (GST-tagged construct);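 also: 20 pmol protein with 1.5 nmol RNA pool for 30 min at 4°C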
- assayText: RNAcompete 7-mer binding Z-score; higher = stronger binding preference
Over roughly 16,000 sequences, “Z-score” has its median near -0.37; the highest 2% begin near 3.1. The entries come from a sample that favours the highest values as a whole.

Q: Request the reported RNAcompete 7-mer binding Z-score associated with CGGAGCA
Result: 1.02

Q: Look up RNAcompete 7-mer binding Z-score: AAAGCUC
Result: -0.53

Q: Tell me the measured RNAcompete 7-mer binding Z-score of GUUGCAU , please.
Result: -0.227

Q: Reported RNAcompete 7-mer binding Z-score for AGGGGUG : what is it?
Result: 3.14

Q: Name the reported RNAcompete 7-mer binding Z-score value associated with the sequence AUGGGUC
Result: 2.15

Q: Given the entry AUCGGUG , report its measured RNAcompete 7-mer binding Z-score.
Result: 0.691

Q: Look up RNAcompete 7-mer binding Z-score for this sequence: GCCUACC
Result: -0.726

Q: Query: RNAcompete 7-mer binding Z-score; subject: UAUGAGG
Result: 1.54

Q: Request the reported RNAcompete 7-mer binding Z-score associated with UAAAGCC
Result: -0.661

Q: Dear colleague, I am looking for the recorded RNAcompete 7-mer binding Z-score of the following sequence: GUAGGUA
Result: 2.25

Q: What value of RNAcompete 7-mer binding Z-score has been recorded for this entry: AUGGGUA
Result: 3.71

Q: // RNAcompete 7-mer binding Z-score lookup, key: GCACGGU
Result: 0.519

Q: Returns the measured RNAcompete 7-mer binding Z-score for the input sequence. Input: CUUGGUC
Result: -0.821

Q: So what does the record say about RNAcompete 7-mer binding Z-score for AUUGGUG ?
Result: 1.84

Q: Fill in the blank: the reported RNAcompete 7-mer binding Z-score of AUGGAGU is ____.
Result: 2.24

Q: For CAUUUCU , what is its reported RNAcompete 7-mer binding Z-score?
Result: -0.872

Q: Could you share which RNAcompete 7-mer binding Z-score value was measured for UCGAGUU ?
Result: -0.482

Q: Given CGGAGGU , state its recorded RNAcompete 7-mer binding Z-score.
Result: 2.46

Q: # input sequence: CUGACGG ; wanted: its RNAcompete 7-mer binding Z-score
Result: 0.243

Q: Which RNAcompete 7-mer binding Z-score is reported for this sequence? GAAGGUC
Result: 1.25

Q: Give its RNAcompete 7-mer binding Z-score value. Item: GUGGAGU
Result: 2.86

Q: Look at this sequence and give its reported RNAcompete 7-mer binding Z-score. AGGGGGC
Result: 1.4

Q: Quick one: RNAcompete 7-mer binding Z-score of CUGGGUG ?
Result: 1.82

Q: Quick check: RNAcompete 7-mer binding Z-score of GCGGUGU ?
Result: 0.96

Q: Which RNAcompete 7-mer binding Z-score value is on record for GCGAGGG ?
Result: 3.86

Q: # query: RNAcompete 7-mer binding Z-score of entry CGUCAUA
Result: -0.519

Q: Find the recorded RNAcompete 7-mer binding Z-score belonging to GAAGGCG and report it.
Result: 2.66

Q: Record request: RNAcompete 7-mer binding Z-score value, item CGGGUGU
Result: 1.83

Q: Look at this sequence and give its reported RNAcompete 7-mer binding Z-score. ACGAGGG
Result: 3.71

Q: I'd like to know its RNAcompete 7-mer binding Z-score. The sequence in question is CUUAAUC
Result: -0.905

Q: Fill blank: measured RNAcompete 7-mer binding Z-score of the sequence AUGGAGG is ____.
Result: 4.33

Q: What does the data say about its RNAcompete 7-mer binding Z-score? Entry: UAAGCAU
Result: -0.555

Q: Give the measured RNAcompete 7-mer binding Z-score of UUAAAGC .
Result: -0.439

Q: Sample GUAGGUG — what was its RNAcompete 7-mer binding Z-score?
Result: 3.25

Q: Any idea what RNAcompete 7-mer binding Z-score was measured for AAAGGUG ?
Result: 3.5
